# TGT: Macrophage-stimulating protein receptor (Homo sapiens)
# MEASUREMENT SETUP: at 10 µM
Binary label based on residual activity with cut-off 80%: below gives t, not below gives f.

[[record]]
smiles_input = "Nc1ncnc2[nH]nc(Nc3ccc(F)cc3)c12"
class_assignment = "t"

[[record]]
smiles_input = "O=C(c1cc2cc(O)ccc2[nH]1)c1cc2cc(O)ccc2[nH]1"
class_assignment = "t"

[[record]]
smiles_input = "CCCCc1c(-c2ccc(OC)cc2)[nH]c2nccnc12"
class_assignment = "f"

[[record]]
smiles_input = "O=C1Cc2c([nH]c3ccc([N+](=O)[O-])cc23)-c2ccccc2N1"
class_assignment = "f"


###

// residual activity lookup, one value per entry
# TGT: Vascular endothelial growth factor receptor 2 (Homo sapiens)
# MEASUREMENT SETUP: at 1 µM
EXPERIMENTAL READOUT: residual activity (%)

[[record]]
smiles_input = "NC(=O)Nc1sc(-c2ccc(F)cc2)cc1C(N)=O"
tgt = "Vascular endothelial growth factor receptor 2 (Homo sapiens)"
recorded_result = 41

[[record]]
smiles_input = "O=C(Nc1ccc(Cl)cc1)c1ccccc1NCc1ccncc1"
tgt = "Vascular endothelial growth factor receptor 2 (Homo sapiens)"
recorded_result = 3

[[record]]
smiles_input = "NC(=O)c1cccc(-c2cc(Nc3ccc(OC(F)(F)F)cc3)ncn2)c1"
tgt = "Vascular endothelial growth factor receptor 2 (Homo sapiens)"
recorded_result = 100


###

// residual activity lookup, one value per entry
# TGT: Tyrosine-protein kinase Fgr (Homo sapiens)
# MEASUREMENT SETUP: at 1 µM
EXPERIMENTAL READOUT: residual activity (%)

[[record]]
smiles_input = "O=c1cc(N2CCOCC2)oc2c1ccc1ccccc12"
experimental_readout = "residual activity"
recorded_result = 107

[[record]]
smiles_input = "O=C(O)/C=C/c1cc(Br)c(Br)c(Br)c1Br"
experimental_readout = "residual activity"
recorded_result = 104

[[record]]
smiles_input = "CCN(CC)CCNC(=O)c1c(C)[nH]c(/C=C2\\C(=O)Nc3ccc(Cl)cc32)c1C"
experimental_readout = "residual activity"
recorded_result = 8

[[record]]
smiles_input = "O=C(Nc1nc2ccccc2n1CCN1CCOCC1)c1cccc([N+](=O)[O-])c1"
experimental_readout = "residual activity"
recorded_result = 102

[[record]]
smiles_input = "COc1cc2c(cc1OC)-c1n[nH]c(Nc3cccc(F)c3)c1C2"
experimental_readout = "residual activity"
recorded_result = 20

[[record]]
smiles_input = "Oc1cccc(-c2nc(N3CCOCC3)c3oc4ncccc4c3n2)c1"
experimental_readout = "residual activity"
recorded_result = 118

[[record]]
smiles_input = "Nc1nc(Nc2ccc(S(N)(=O)=O)cc2)nn1C(=O)c1c(F)cccc1F"
experimental_readout = "residual activity"
recorded_result = 63

[[record]]
smiles_input = "CC(C)[C@H](CO)Nc1nc(Nc2cc(N)cc(Cl)c2)c2ncn(C(C)C)c2n1"
experimental_readout = "residual activity"
recorded_result = 33

[[record]]
smiles_input = "COc1cc2nccc(Oc3ccc(NC(=O)Nc4cc(C)on4)c(Cl)c3)c2cc1OC"
experimental_readout = "residual activity"
recorded_result = 8

[[record]]
smiles_input = "N#C/C(=C1/Nc2ccccc2S1)c1ccnc(NCCc2cccnc2)n1"
experimental_readout = "residual activity"
recorded_result = 81

[[record]]
smiles_input = "NCCNc1ncc(C(N)=O)c(Nc2cccc(C(F)(F)F)c2)n1"
experimental_readout = "residual activity"
recorded_result = 30


###

# TGT: Phosphorylase b kinase gamma catalytic chain, liver/testis isoform (Homo sapiens) (UniProt P15735)
# Sequence (P15735 whole entry, canonical isoform): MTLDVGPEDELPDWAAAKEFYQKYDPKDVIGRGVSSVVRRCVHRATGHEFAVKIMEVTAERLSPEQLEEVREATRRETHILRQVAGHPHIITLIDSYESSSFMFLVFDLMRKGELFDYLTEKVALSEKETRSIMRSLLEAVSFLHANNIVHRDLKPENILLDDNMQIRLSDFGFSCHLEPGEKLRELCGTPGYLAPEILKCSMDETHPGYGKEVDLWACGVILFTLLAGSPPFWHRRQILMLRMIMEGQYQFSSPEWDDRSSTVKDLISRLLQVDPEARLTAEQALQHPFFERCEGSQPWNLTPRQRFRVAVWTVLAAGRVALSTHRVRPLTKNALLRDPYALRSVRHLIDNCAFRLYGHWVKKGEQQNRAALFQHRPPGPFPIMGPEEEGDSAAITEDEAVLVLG
# MEASUREMENT SETUP: at 1 µM
EXPERIMENTAL READOUT: residual activity (%)

[[record]]
smiles_input = "CC(C)(C)c1nc2c3ccc(F)cc3c3c(=O)[nH]ccc3c2[nH]1"
recorded_result = 41

[[record]]
smiles_input = "O=c1cc(N2CCNCC2)oc2c(-c3ccccc3)cccc12"
recorded_result = 84

[[record]]
smiles_input = "CN(C)S(=O)(=O)c1ccc2c(c1)/C(=C/c1cc3c([nH]1)CCCC3)C(=O)N2"
recorded_result = 48

[[record]]
smiles_input = "NCCNc1ncc(C(N)=O)c(Nc2cccc(C(F)(F)F)c2)n1"
recorded_result = 64

[[record]]
smiles_input = "COc1ccc(CNC(=O)Nc2ncc([N+](=O)[O-])s2)cc1"
recorded_result = 122

[[record]]
smiles_input = "O=C(O)/C=C/c1cc(Br)c(Br)c(Br)c1Br"
recorded_result = 109

[[record]]
smiles_input = "Nc1nccc(-c2c(-c3ccc(F)cc3)ncn2C2CCNCC2)n1"
recorded_result = 125

[[record]]
smiles_input = "COc1cc2ncnc(Nc3cccc(Cl)c3)c2cc1OC"
recorded_result = 104

[[record]]
smiles_input = "CCCCc1c(-c2ccc(OC)cc2)[nH]c2nccnc12"
recorded_result = 113

[[record]]
smiles_input = "Nc1nc(Nc2ccc(S(N)(=O)=O)cc2)nn1C(=O)c1c(F)cccc1F"
recorded_result = 100

[[record]]
smiles_input = "CCOc1nc(NC(=O)Cc2cc(OC)ccc2OC)cc(N)c1C#N"
recorded_result = 118


###

# TGT: Receptor-interacting serine/threonine-protein kinase 2 (Homo sapiens)
# MEASUREMENT SETUP: at 10 µM
# Description: Millipore: Percentage of residual kinase activity of RIPK2 at 10uM relative to control. Control inhibitor: Phosphoric acid* at 0.3uM. Buffer: 8 mM MOPS pH 7.0, 0.2 mM EDTA
// residual activity lookup, one value per entry
EXPERIMENTAL READOUT: residual activity (%)

[[record]]
molecule = "CCCC(=O)Oc1ccc2[nH]c(C(=O)c3cc4ccccc4[nH]3)cc2c1"
tgt = "Receptor-interacting serine/threonine-protein kinase 2 (Homo sapiens)"
recorded_result = 89

[[record]]
molecule = "O=C(NC(NC(=S)Nc1ccc(F)c([N+](=O)[O-])c1)C(Cl)(Cl)Cl)C(c1ccccc1)c1ccccc1 (stereo not given)"
tgt = "Receptor-interacting serine/threonine-protein kinase 2 (Homo sapiens)"
recorded_result = 92

[[record]]
molecule = "Nc1ncnc2c1c(-c1ccc(Oc3ccccc3)cc1)cn2C1CCCC1"
tgt = "Receptor-interacting serine/threonine-protein kinase 2 (Homo sapiens)"
recorded_result = 15

[[record]]
molecule = "Nc1ncnc2[nH]nc(Nc3ccc(F)cc3)c12"
tgt = "Receptor-interacting serine/threonine-protein kinase 2 (Homo sapiens)"
recorded_result = 21

[[record]]
molecule = "O=C(c1cc2cc(O)ccc2[nH]1)c1cc2cc(O)ccc2[nH]1"
tgt = "Receptor-interacting serine/threonine-protein kinase 2 (Homo sapiens)"
recorded_result = 6

[[record]]
molecule = "CCCCc1c(-c2ccc(O)cc2)[nH]c2nccnc12"
tgt = "Receptor-interacting serine/threonine-protein kinase 2 (Homo sapiens)"
recorded_result = 30

[[record]]
molecule = "O=c1cc(N2CCOCC2)oc2c(-c3ccccc3)cccc12"
tgt = "Receptor-interacting serine/threonine-protein kinase 2 (Homo sapiens)"
recorded_result = 74

[[record]]
molecule = "O=C1Nc2ccc(Cl)cc2/C1=C/c1cc(Cl)c(O)c(Cl)c1"
tgt = "Receptor-interacting serine/threonine-protein kinase 2 (Homo sapiens)"
recorded_result = 25

[[record]]
molecule = "CSc1nc(-c2ccc(F)cc2)c(-c2ccnc(NC(C)c3ccccc3)c2)[nH]1 (stereo not given)"
tgt = "Receptor-interacting serine/threonine-protein kinase 2 (Homo sapiens)"
recorded_result = 30

[[record]]
molecule = "CCN(CC)CCNC(=O)c1c(C)[nH]c(/C=C2\\C(=O)Nc3ccc(Cl)cc32)c1C"
tgt = "Receptor-interacting serine/threonine-protein kinase 2 (Homo sapiens)"
recorded_result = 27


###

# TGT: Cyclin-dependent kinase 2/cyclin A (Homo sapiens) (UniProt P24941+P20248+P78396)
# MEASUREMENT SETUP: at 1 µM
EXPERIMENTAL READOUT: residual activity (%)

[[record]]
smiles_input = "O=c1c(-c2ccc(F)cc2)c(-c2ccncc2)[nH]n1-c1ccc(Cl)cc1"
recorded_result = 99

[[record]]
smiles_input = "Nc1n[nH]c2nc3ccccc3nc12"
recorded_result = 86

[[record]]
smiles_input = "O=C(c1ccccc1)c1ccc(N2CCOCC2)cc1O"
recorded_result = 119

[[record]]
smiles_input = "O=C1NC(=O)c2c1c1c3ccccc3[nH]c1n1cncc21"
recorded_result = 64

[[record]]
smiles_input = "COc1ccc(CNC(=O)Nc2ncc([N+](=O)[O-])s2)cc1"
recorded_result = 78


###

// residual activity lookup, one value per entry
# TGT: Glycogen synthase kinase-3 alpha (Homo sapiens)
# MEASUREMENT SETUP: at 1 µM
EXPERIMENTAL READOUT: residual activity (%)

[[record]]
smiles_input = "COc1cc2nccc(Oc3ccc(NC(=S)NC(=O)c4ccccc4C)cc3)c2cc1OC"
tgt = "Glycogen synthase kinase-3 alpha (Homo sapiens)"
experimental_readout = "residual activity"
units_label = "%"
recorded_result = 120

[[record]]
smiles_input = "O=C(c1ccccc1)c1ccc(N2CCOCC2)cc1O"
tgt = "Glycogen synthase kinase-3 alpha (Homo sapiens)"
experimental_readout = "residual activity"
units_label = "%"
recorded_result = 91

[[record]]
smiles_input = "N#Cc1c(NC(=O)c2cccc3ccccc23)sc2c1CCCC2"
tgt = "Glycogen synthase kinase-3 alpha (Homo sapiens)"
experimental_readout = "residual activity"
units_label = "%"
recorded_result = 84

[[record]]
smiles_input = "Nc1nc(Nc2ccc(S(N)(=O)=O)cc2)nn1C(=O)c1c(F)cccc1F"
tgt = "Glycogen synthase kinase-3 alpha (Homo sapiens)"
experimental_readout = "residual activity"
units_label = "%"
recorded_result = 11

[[record]]
smiles_input = "O=C1NC(=O)C(c2cn(CCCO)c3ncccc23)=C1c1cnccn1"
tgt = "Glycogen synthase kinase-3 alpha (Homo sapiens)"
experimental_readout = "residual activity"
units_label = "%"
recorded_result = 6

[[record]]
smiles_input = "Nc1n[nH]c2nc3ccccc3nc12"
tgt = "Glycogen synthase kinase-3 alpha (Homo sapiens)"
experimental_readout = "residual activity"
units_label = "%"
recorded_result = 81

[[record]]
smiles_input = "O=C1Cc2c([nH]c3ccc([N+](=O)[O-])cc23)-c2ccccc2N1"
tgt = "Glycogen synthase kinase-3 alpha (Homo sapiens)"
experimental_readout = "residual activity"
units_label = "%"
recorded_result = 1

[[record]]
smiles_input = "CC(C)[C@H](CO)Nc1nc(Nc2cc(N)cc(Cl)c2)c2ncn(C(C)C)c2n1"
tgt = "Glycogen synthase kinase-3 alpha (Homo sapiens)"
experimental_readout = "residual activity"
units_label = "%"
recorded_result = 80

[[record]]
smiles_input = "COc1cc2c(cc1OC)-c1n[nH]c(Nc3cccc(F)c3)c1C2"
tgt = "Glycogen synthase kinase-3 alpha (Homo sapiens)"
experimental_readout = "residual activity"
units_label = "%"
recorded_result = 115

[[record]]
smiles_input = "O=C(O)/C=C/c1cc(Br)c(Br)c(Br)c1Br"
tgt = "Glycogen synthase kinase-3 alpha (Homo sapiens)"
experimental_readout = "residual activity"
units_label = "%"
recorded_result = 93

[[record]]
smiles_input = "N#C/C(=C1/Nc2ccccc2S1)c1ccnc(NCCc2cccnc2)n1"
tgt = "Glycogen synthase kinase-3 alpha (Homo sapiens)"
experimental_readout = "residual activity"
units_label = "%"
recorded_result = 1

[[record]]
smiles_input = "Fc1ccc(-c2nc3n(c2-c2ccncc2)CCS3)cc1"
tgt = "Glycogen synthase kinase-3 alpha (Homo sapiens)"
experimental_readout = "residual activity"
units_label = "%"
recorded_result = 88

[[record]]
smiles_input = "O=C(Nc1ccc(Cl)cc1)c1ccccc1NCc1ccncc1"
tgt = "Glycogen synthase kinase-3 alpha (Homo sapiens)"
experimental_readout = "residual activity"
units_label = "%"
recorded_result = 118

[[record]]
smiles_input = "Cn1c2ccccc2c2c3c(c4c5ccccc5n(CCC#N)c4c21)CNC3=O"
tgt = "Glycogen synthase kinase-3 alpha (Homo sapiens)"
experimental_readout = "residual activity"
units_label = "%"
recorded_result = 20

[[record]]
smiles_input = "COc1ccc2c(c1)c(C1=C(c3c[nH]c4ccccc34)C(=O)NC1=O)cn2CCCN(C)C"
tgt = "Glycogen synthase kinase-3 alpha (Homo sapiens)"
experimental_readout = "residual activity"
units_label = "%"
recorded_result = 15

[[record]]
smiles_input = "O=C(Nc1nc2ccccc2n1CCN1CCOCC1)c1cccc([N+](=O)[O-])c1"
tgt = "Glycogen synthase kinase-3 alpha (Homo sapiens)"
experimental_readout = "residual activity"
units_label = "%"
recorded_result = 113

[[record]]
smiles_input = "c1ccc(-c2cnc(Nc3ccc(OCCN4CCCC4)cc3)s2)cc1"
tgt = "Glycogen synthase kinase-3 alpha (Homo sapiens)"
experimental_readout = "residual activity"
units_label = "%"
recorded_result = 109

[[record]]
smiles_input = "NC(=O)c1cccc(-c2cc(Nc3ccc(OC(F)(F)F)cc3)ncn2)c1"
tgt = "Glycogen synthase kinase-3 alpha (Homo sapiens)"
experimental_readout = "residual activity"
units_label = "%"
recorded_result = 98

[[record]]
smiles_input = "O=C1NC(=O)C(c2cn(CCCn3ccnc3)c3ccccc23)=C1Nc1ccccc1"
tgt = "Glycogen synthase kinase-3 alpha (Homo sapiens)"
experimental_readout = "residual activity"
units_label = "%"
recorded_result = 14

[[record]]
smiles_input = "CC(C)(C)n1nc(Cc2cccc3ccccc23)c2c(N)ncnc21"
tgt = "Glycogen synthase kinase-3 alpha (Homo sapiens)"
experimental_readout = "residual activity"
units_label = "%"
recorded_result = 116

[[record]]
smiles_input = "O=C1NC(=O)c2c1c1c3ccccc3[nH]c1n1cncc21"
tgt = "Glycogen synthase kinase-3 alpha (Homo sapiens)"
experimental_readout = "residual activity"
units_label = "%"
recorded_result = 7

[[record]]
smiles_input = "COc1cc2ncnc(Nc3cccc(Cl)c3)c2cc1OC"
tgt = "Glycogen synthase kinase-3 alpha (Homo sapiens)"
experimental_readout = "residual activity"
units_label = "%"
recorded_result = 101

[[record]]
smiles_input = "CC(C)c1nn(-c2c(Cl)cccc2Cl)c2nc(Cc3ccc(OCCO)cc3)[nH]c(=O)c12"
tgt = "Glycogen synthase kinase-3 alpha (Homo sapiens)"
experimental_readout = "residual activity"
units_label = "%"
recorded_result = 66

[[record]]
smiles_input = "Nc1ncnc2[nH]nc(Nc3ccc(F)cc3)c12"
tgt = "Glycogen synthase kinase-3 alpha (Homo sapiens)"
experimental_readout = "residual activity"
units_label = "%"
recorded_result = 98

